Target: Apolipoprotein L1 (Homo sapiens, UniProt O14791)
Experiment: Inhibition of APOL1 G1 variant in human HEK293-T-REx cells measured by Thallium assay
Listing of entries alongside the reported IC50.

>  <MOLECULE>
O=C(NC[C@H](O)C(F)(F)F)[C@H]1C[C@H](c2c(-c3ccc(F)cc3)[nH]c3c(F)cc(F)cc32)C1

>  <IC50>
0.25 nM

$$$$
>  <MOLECULE>
Cn1cncc1CNC(=O)C1CC(Cc2c(-c3ccc(F)cc3)[nH]c3c(F)cc(F)cc23)C1 (stereo unspecified)

>  <IC50>
> 1000 nM

$$$$
>  <MOLECULE>
O=C(CC1CC(c2c(-c3ccc(F)cc3)[nH]c3c(F)cc(F)cc23)C1)N[C@@H](CO)C(F)(F)F (stereo partly specified)

>  <IC50>
> 1000 nM

$$$$
>  <MOLECULE>
CN(C)C(=O)CN(C)C(=O)[C@H]1C[C@H](c2c(-c3ccc(F)cc3)[nH]c3c(F)cc(F)cc32)C1

>  <IC50>
0.25 nM

$$$$
>  <MOLECULE>
O=C(Nc1c[nH][nH]c1=O)C1CC(Cc2c(-c3ccc(F)cc3)[nH]c3c(F)cc(F)cc23)C1 (stereo unspecified)

>  <IC50>
> 1000 nM

$$$$
>  <MOLECULE>
CC1(C(=O)N[C@H]2CCNC2=O)CC(c2c(-c3ccc(F)cc3)[nH]c3c(F)cc(F)cc23)C1 (stereo partly specified)

>  <IC50>
0.25 nM

$$$$
>  <MOLECULE>
O=C(NCC(F)(F)F)[C@H]1C[C@@H](c2c(-c3ccc(F)cc3)[nH]c3c(F)cc(F)cc32)C1

>  <IC50>
0.25 nM

$$$$
>  <MOLECULE>
O=C1NCCC1NC(=O)[C@H]1C[C@@H](c2c(-c3ccc(F)cc3)[nH]c3c(F)cc(F)cc32)C1 (stereo partly specified)

>  <IC50>
> 1000 nM

$$$$
>  <MOLECULE>
O=C(NC1(CCO)CC1)[C@H]1C[C@H](c2c(-c3ccc(F)cc3)[nH]c3c(F)cc(F)cc32)C1

>  <IC50>
0.25 nM

$$$$
>  <MOLECULE>
O=C1NCCC1CNC(=O)[C@H]1C[C@H](c2c(-c3ccc(F)cc3)[nH]c3c(F)cc(F)cc32)C1 (stereo partly specified)

>  <IC50>
> 1000 nM

$$$$
>  <MOLECULE>
CC1CC(NC(=O)[C@H]2C[C@H](c3c(-c4ccc(F)cc4)[nH]c4c(F)cc(F)cc43)C2)C(=O)N1 (stereo partly specified)

>  <IC50>
> 1000 nM

$$$$
>  <MOLECULE>
Cn1cc(CNC(=O)C2CC(Cc3c(-c4ccc(F)cc4)[nH]c4c(F)cc(F)cc34)C2)cn1 (stereo unspecified)

>  <IC50>
> 1000 nM

$$$$
>  <MOLECULE>
CCC(O)(CCCO)CNC(=O)[C@H]1C[C@H](c2c(-c3ccc(F)cc3)[nH]c3c(F)cc(F)cc32)C1 (stereo partly specified)

>  <IC50>
> 1000 nM

$$$$
>  <MOLECULE>
O=C(N[C@H]1CCNC1=O)O[C@H]1C[C@H](c2c(-c3ccc(F)cc3)[nH]c3c(F)cc(F)cc32)C1 (relative stereo)

>  <IC50>
> 1000 nM

$$$$
>  <MOLECULE>
CC(CO)NC(=O)[C@H]1C[C@H](c2c(-c3ccc(F)cc3)[nH]c3c(F)cc(F)cc32)C1 (stereo partly specified)

>  <IC50>
< 250 nM

$$$$
>  <MOLECULE>
O=C(N[C@H]1CC[C@@H](CO)O1)[C@H]1C[C@H](c2c(-c3ccc(F)cc3)[nH]c3c(F)cc(F)cc32)C1

>  <IC50>
> 1000 nM

$$$$
